test system: M14 melanoma; assay: NCI-60 one-dose screen, 48 h (100 = growth as untreated, 0 = no growth, -100 = all killed); conditions: 10 µM unless noted
The panel holds about 83,000 compounds, 20% with a hit somewhere; the sample as a whole holds those more often.
Entries and their growth
Write the answer as a number in %, unit excluded.

Please review the entries below; each comes with its answer.
COC(=O)[C@H]1CCCN1C[C@@H](O)CN1C(=O)/C(=C\c2cc(OC)c(OC)c(OC)c2)c2ccccc21 : 97.3
OB(O)c1cccc(-c2nc3ccc4[nH]ncc4c3c3c2CCCC3)c1 : 64.8
C=CCn1c(SCC(=O)Nc2ccc(C(=O)/C=C/c3ccc(Cl)cc3)cc2)nnc1-c1cc(-c2ccc(S(N)(=O)=O)cc2)nc2ccccc12 : 92.2
c1cc2[nH]ncc2cc1-c1nc2ccc3[nH]ncc3c2c2c1CCCC2 : 2.16
Oc1c(Cl)cc(Cl)c2ccc(Cn3cc(-c4cc(C(F)(F)F)cc(C(F)(F)F)c4)nn3)nc12 : 47.8
CCOC(=O)c1c(NC(=O)c2ccc(C(C)C)cc2)sc2c(CN(C)C)c(O)ccc12 : -64

Q: Name the recorded growth for COc1ccc(-c2cn(-c3cc(OC)c(OC)c(OC)c3)c(=O)n2C(C)=O)cc1 .
Ans: 92.6

Q: May I ask what growth has been recorded for CN(C)c1ccc(/C=C/C(=O)c2ccc(-n3cc(CN4CCN(c5cc6c(cc5F)c(=O)c(C(=O)O)cn6C5CC5)CC4)nn3)cc2)cc1 ?
Ans: 60.9

###

Tested on: SF-295 CNS
Assay: NCI-60 one-dose screen, 48 h
Details: 10 µM unless noted
Protocol: Cells are grown in 96 well plates and exposed to the test compound for 48 hours. Compounds are tested at a single concentration, which is 10^-5 M for most compounds. The reported endpoint is percent growth (GI% or GIPRCNT), where numbers from 0 - 100% represent growth inhibition, and numbers from -100% - 0 represent cell death. For example, a value of 40 represents 60% growth inhibition. A value of 0 means no net growth occurred over the course of the experiment. […]
This is part of a sample that, as a whole, favours compounds with a hit. Of some 83,000 tested, about 20% had one in any assay. The source made the active and inactive calls. How the source made its calls: active means growth percent below 10; inactive means the rest.
Returns: one label drawn from active, inactive

Example results:
O=C1NCCC12CCN(c1c(Cl)cncc1-c1ccc(O)cc1)CC2 : inactive
CCOC(=O)c1cc(C(=O)c2cc(OC)c(OC)c(OC)c2)n2ccc(-c3ccncc3)cc12 : inactive
COc1ccc(-c2csc(N(C(=O)N3CCN(c4cc5c(cc4F)c(=O)c(C(=O)O)cn5C4CC4)CC3)c3ccccc3)n2)cc1 : active
N=C(N)c1ccc(-c2ccc(-c3ccc(Cl)cc3)s2)nc1 : inactive
CCN1C(=O)N(CC)C2C1NN=c1s/c(=C\c3ccc(Cl)cc3Cl)c(=O)n12 (stereo not given) : inactive
CC(C)=NNc1ccccn1 : inactive
N#Cc1cccc(NC(=O)c2oc3ccccc3c2-c2cnn(-c3ccccc3)c2)c1 : inactive
Cn1ccnc1C(=O)C(=O)Nc1ccc(CC(=O)Nc2ccccc2)cc1 : inactive
NC(=O)c1c(NC(=O)c2ccccc2)sc2c1CCC(=O)C2 : inactive

Continue with the next compound.
Q: Tell me the recorded outcome of this test for O=Nc1c(-c2c(O)[nH]c3ncccc23)[nH]c2ccccc12 .
Ans: inactive
